- Test system: Haemonchus contortus
- ASSAY_INFO: Haemonchus contortus (HAEMCO) larval mortality assay
- RECORDED_CONDITIONS: 120 h, application rate 20 ppm, after 5 days, read-out: activity (percentage of larval mortality)
PROPERTY: mortality at 20 ppm

The following compounds have reported results that may help.
[
  {
    "COMPOUND": "O=C(NCC(F)(F)c1ccc(-c2ccc(F)nc2)cc1Cl)c1cccnc1C(F)(F)F",
    "PROPERTY": "mortality at 20 ppm",
    "RESULT": "90%"
  },
  {
    "COMPOUND": "O=C(NCCc1ccc(-c2cncc(Cl)c2)cc1)c1cccnc1C(F)(F)F",
    "PROPERTY": "mortality at 20 ppm",
    "RESULT": "80%"
  }
]

Kindly state the measured mortality at 20 ppm obtained for O=C(NCC(F)(F)c1ccc(-c2ccc(Cl)nc2)cc1Cl)c1ccccc1C(F)(F)F with Haemonchus contortus.
100%

Same question for O=C(NCCc1ccc(-c2cccnc2)cc1)c1ccccc1C(F)(F)F please.
80%

Same question for O=C(NCCc1ccc(-c2ccc(F)nc2)cc1)c1ccccc1C(F)(F)F please.
100%

Same question for O=C(NCC(F)c1ccc(-c2cncc(Cl)c2)cc1Cl)c1ccccc1C(F)(F)F (stereo not drawn) please.
100%

Same question for O=C(NCCc1ccc(-c2ccc(OCC(F)(F)F)nc2)cc1)c1ccccc1C(F)(F)F please.
80%

Same question for O=C(NCC(F)c1ccc(-c2ccc(C(F)(F)F)nc2)cc1Cl)c1cccnc1C(F)(F)F (stereo not drawn) please.
90%

Same question for O=C(NCC(F)c1ccc(-c2ccc(Cl)nc2)cc1Cl)c1nccnc1C(F)(F)F (stereo not drawn) please.
100%

Same question for O=C(NCC(F)(F)c1ccc(-c2cncc(F)c2)cc1F)c1ccccc1C(F)(F)F please.
100%

###

Reported Emax at 4 ppm values for a set of compounds
- System: Haemonchus contortus
- ASSAY_INFO: Haemonchus contortus (HAEMCO) larval mortality assay
- RECORDED_CONDITIONS: 120 h, comparative test, 4 ppm, 5 dat, read-out: % Efficacy
Just so you know, I need the unit written after the number.

The following compounds have reported results that may help.
[
  {
    "COMPOUND": "O=C(NCC(F)c1ccc(-c2ccc(F)nc2)cc1Cl)c1ccccc1C(F)(F)F (stereo not shown)",
    "Emax at 4 ppm": "100%"
  },
  {
    "COMPOUND": "Cn1cc(-c2ccc(CCNC(=O)c3ccccc3C(F)(F)F)c(Cl)c2)cn1",
    "Emax at 4 ppm": "100%"
  },
  {
    "COMPOUND": "O=C(NCCc1ccc(-c2cncc(F)c2)cc1Cl)c1ccccc1C(F)(F)F",
    "Emax at 4 ppm": "100%"
  }
]

Next:
Look up Emax at 4 ppm for this compound: O=C(NCCc1ccc(-c2ccc(F)nc2)cc1)c1ccccc1C(F)(F)F
90%

###

- System: Haemonchus contortus
- ASSAY_INFO: Haemonchus contortus (HAEMCO) larval mortality assay
- RECORDED_CONDITIONS: 120 h, application rate 20 ppm, after 5 days, read-out: activity (percentage of larval mortality)
Reported mortality at 20 ppm values for a set of molecules
Dear colleague, please return just the value in %, with no unit written.

The following molecules have reported results that may help.
[
  {
    "MOLECULE": "O=C(NCC(F)c1ccc(-c2ccc(F)nc2)cc1Cl)c1nccnc1C(F)(F)F (centres unmarked) [Example 1-87]",
    "mortality at 20 ppm / %": 100
  },
  {
    "MOLECULE": "O=C(NCCc1ccc(-c2ccc(Cl)nc2Cl)cc1Cl)c1ccccc1C(F)(F)F [Example 1-49]",
    "mortality at 20 ppm / %": 90
  },
  {
    "MOLECULE": "O=C(NCC(F)(F)c1ccc(-c2cncc(Cl)c2)cc1C(F)(F)F)c1ccccc1C(F)(F)F [Example 1-120]",
    "mortality at 20 ppm / %": 100
  },
  {
    "MOLECULE": "O=C(NCCc1ccc(-c2ccnc(F)c2)cc1)c1cccnc1C(F)(F)F [Example 1-27]",
    "mortality at 20 ppm / %": 80
  },
  {
    "MOLECULE": "O=C(NCC(F)c1ccc(-c2ccc(F)nc2)cc1Cl)c1cccnc1C(F)(F)F (centres unmarked) [Example 1-88]",
    "mortality at 20 ppm / %": 100
  }
]

Kindly state the measured mortality at 20 ppm obtained for O=C(NCCc1ccc(-c2ccc(C(F)(F)F)nc2)cc1)c1ccccc1C(F)(F)F [Example 1-12] with Haemonchus contortus.
90

Same question for O=C(NCC(F)c1ccc(-c2cncc(Cl)c2)cc1Cl)c1cccnc1C(F)(F)F (centres unmarked) [Example 1-83] please.
100

Same question for O=C(NCC(F)c1ccc(-c2ccnc(F)c2)cc1Cl)c1cccnc1C(F)(F)F (centres unmarked) [Example 1-81] please.
100

###

- Test system: Haemonchus contortus
- ASSAY_INFO: Haemonchus contortus (HAEMCO) larval mortality assay
- RECORDED_CONDITIONS: 120 h, application rate 20 ppm, after 5 days, read-out: activity (percentage of larval mortality)
- Procedure: Solvent: dimethyl sulfoxide To produce a suitable preparation of active compound, 10 mg of active compound are dissolved in 0.5 ml solvent, and the concentrate is diluted with “Ringer's solution” to the desired concentration. Approximately 40 larvae of the red stomach worm (Haemonchus contortus) are transferred into a test tube containing compound solution. After 5 days percentage of larval mortality are recorded. 100% efficacy means all larvae are killed, 0% efficacy means no larvae are killed.
PROPERTY: mortality at 20 ppm (%)
Dear colleague, please return just the value in %, with no unit written.

The following molecules have reported results that may help.
[
  {
    "SMILES_STRING": "O=C(NCC(F)(F)c1ccc(-n2cc(C(F)(F)F)cn2)cc1Cl)c1ccccc1C(F)(F)F",
    "PROPERTY": "mortality at 20 ppm",
    "NUMBER": 100
  },
  {
    "SMILES_STRING": "CC(C)Oc1ccc(-c2ccc(CCNC(=O)c3ccccc3C(F)(F)F)c(Cl)c2)cn1",
    "PROPERTY": "mortality at 20 ppm",
    "NUMBER": 100
  },
  {
    "SMILES_STRING": "O=C(NCCc1ccc(-c2ccccn2)cc1Cl)c1ccccc1C(F)(F)F",
    "PROPERTY": "mortality at 20 ppm",
    "NUMBER": 100
  },
  {
    "SMILES_STRING": "O=C(NCCc1ccc(-c2cncc(Cl)c2)cc1)c1ccccc1C(F)(F)F",
    "PROPERTY": "mortality at 20 ppm",
    "NUMBER": 100
  }
]

Next:
Look up mortality at 20 ppm for this molecule: O=C(NCCc1ccc(-c2cncc(F)c2)cc1)c1ccccc1C(F)(F)F
90

###

- Tested on: Haemonchus contortus
- ASSAY_INFO: Haemonchus contortus (HAEMCO) larval mortality assay
- RECORDED_CONDITIONS: 120 h, application rate 20 ppm, after 5 days, read-out: activity (percentage of larval mortality)
PROPERTY: mortality at 20 ppm (%)
Dear colleague, please return just the value in %, with no unit written.

The following compounds have reported results that may help.
[
  {
    "COMPOUND": "O=C(NCC(F)c1ccc(-c2ccc(F)nc2)cc1Cl)c1ccccc1C(F)(F)F (centres unmarked) [Example 1-74]",
    "NUMBER": 100
  },
  {
    "COMPOUND": "O=C(NCC(F)c1ccc(-c2ccc(Cl)nc2)cc1Cl)c1ccccc1C(F)(F)F (centres unmarked) [Example 1-73]",
    "NUMBER": 100
  },
  {
    "COMPOUND": "O=C(NCCc1ccc(-c2ccoc2)cc1Cl)c1ccccc1C(F)(F)F [Example 1-35]",
    "NUMBER": 100
  },
  {
    "COMPOUND": "O=C(NCCc1ccc(-c2ccnc(Cl)c2)cc1)c1ccccc1C(F)(F)F [Example 1-64]",
    "NUMBER": 80
  },
  {
    "COMPOUND": "O=C(NCC(F)(F)c1ccc(-c2cncc(F)c2)cc1C(F)(F)F)c1ccccc1C(F)(F)F [Example 1-122]",
    "NUMBER": 100
  }
]

Look up mortality at 20 ppm for this compound: O=C(NCCc1ccc(-c2cccc(Cl)n2)cc1Cl)c1ccccc1C(F)(F)F [Example 1-41]
90

Same question for Cc1ncccc1-c1ccc(CCNC(=O)c2ccccc2C(F)(F)F)c(Cl)c1 [Example 1-42] please.
100

Same question for O=C(NCCc1ccc(-c2ccc(OCC(F)(F)F)nc2)cc1Cl)c1ccccc1C(F)(F)F [Example 1-32] please.
90

Same question for O=C(NCC(F)(F)c1ccc(-c2cc(Cl)nc(Cl)c2)cc1Cl)c1ccccc1C(F)(F)F [Example 1-92] please.
100

Same question for O=C(NCC(F)(F)c1ccc(-c2ccc(Cl)nc2)cc1F)c1ccccc1C(F)(F)F [Example 1-114] please.
80

Same question for CC(F)(CNC(=O)c1c(F)cccc1F)c1ccc(-c2cncc(F)c2)cc1Cl (centres unmarked) [Example 1-103] please.
100

Same question for O=C(NCC(F)(F)c1ccc(-c2ccc(F)nc2)cc1Cl)c1ccccc1C(F)(F)F [Example 1-93] please.
100

Same question for O=C(NCC(F)(F)c1ccc(-c2ccc(C(F)(F)F)nc2)cc1Cl)c1ccccc1C(F)(F)F [Example 1-94] please.
100
